# System: HBV-infected NTCP-HepG2 cells, secreted HBsAg
# MEASUREMENT_DESCRIPTION: microbe, parasite or virus in culture
# Format: cell-based, hepatitis B virus (genotype D, AD38-derived)
# CONDITION_DETAILS: Hepatitis B virus, 120 h, secreted HBsAg in supernatant after 5 days; geometric mean of minimum four determinations; read-out: NTCP HBsAg EC50
EXPERIMENTAL_ENDPOINT: pEC50
Hey, just a heads up that pEC50 is the negative log base 10 of the concentration in molar.

Worked examples, 5 compounds total:
• COCCCOc1cc2c(cc1Cl)-c1cc(=O)c(C(=O)O)cn1N1[C@@H]2CC1(C)C = 8.11
• COCCCOc1cc2c(cc1Cl)-c1cc(=O)c(C(=O)O)cn1N1[C@@H]2CCC1(COC)COC = 7.35
• COc1cc2c(cc1C#CC(C)(C)S(=O)(=O)C1CC1)[C@H]1CCC(C)(C)N1n1cc(C(=O)O)c(=O)cc1-2 = 7.95
• COCCCOc1cc2c(cc1COC)-c1cc(=O)c(C(=O)O)cn1N1[C@@H]2COCC12CCC2 = 7.17
• COCCCOc1cc2c(cc1OCC(F)F)-c1cc(=O)c(C(=O)O)cn1N1[C@@H]2CCC1(C)C = 8.43

Moving on to another compound below.
Reported pEC50, compound `COCCCOc1cc2c(cc1COC)-c1cc(=O)c(C(=O)O)cn1N1[C@@H]2CCC12CCC2` : ____ 8.41
